tested-on: Glucocorticoid receptor (Homo sapiens)
Sequence (P04150 whole entry): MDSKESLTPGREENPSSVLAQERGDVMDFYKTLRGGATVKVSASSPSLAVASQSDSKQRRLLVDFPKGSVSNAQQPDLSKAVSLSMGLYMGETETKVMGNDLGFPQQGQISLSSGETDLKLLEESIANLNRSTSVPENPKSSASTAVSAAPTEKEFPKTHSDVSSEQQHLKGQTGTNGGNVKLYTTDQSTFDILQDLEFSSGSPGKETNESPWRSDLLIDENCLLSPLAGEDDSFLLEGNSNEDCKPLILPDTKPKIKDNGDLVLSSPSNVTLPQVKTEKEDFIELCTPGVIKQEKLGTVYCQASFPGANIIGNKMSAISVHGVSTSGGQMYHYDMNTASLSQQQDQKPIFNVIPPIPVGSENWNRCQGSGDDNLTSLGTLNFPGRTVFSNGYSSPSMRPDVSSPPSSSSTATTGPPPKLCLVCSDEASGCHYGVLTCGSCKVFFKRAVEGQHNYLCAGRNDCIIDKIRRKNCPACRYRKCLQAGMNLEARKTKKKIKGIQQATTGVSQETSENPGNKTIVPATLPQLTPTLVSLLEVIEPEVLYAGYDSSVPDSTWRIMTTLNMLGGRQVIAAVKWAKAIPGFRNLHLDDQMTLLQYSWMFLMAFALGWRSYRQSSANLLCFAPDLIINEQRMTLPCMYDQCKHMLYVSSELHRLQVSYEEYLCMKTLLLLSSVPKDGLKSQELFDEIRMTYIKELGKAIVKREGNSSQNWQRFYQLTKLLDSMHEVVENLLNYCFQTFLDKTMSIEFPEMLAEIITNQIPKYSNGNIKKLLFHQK
protocol-description: Displacement of fluormone GS Red from human glucocorticoid receptor after 4 hrs by fluorescence polarization assay
pKi: −log10 of the molar value.
observable: pKi

> print(dat)
                               given.smiles  number
1  Cc1cnc(C(=O)[C@]23Cc4cnn(-c5ccc(F)cc5)c4C=C2CCN(S(=O)(=O)c2ccc(F)c(F)c2)C3)s1    8.89
2  O=C(c1nccs1)[C@]12Cc3cnn(-c4ccc(F)cc4)c3C=C1CCN(S(=O)(=O)c1ccc(Cl)c(Cl)c1)C2    9.23
3  Cc1ccc(C(=O)[C@]23Cc4cnn(-c5ccc(F)cc5)c4C=C2CCN(S(=O)(=O)c2cccc(C)c2)C3)nc1    9.85
4  Cc1cccc(S(=O)(=O)N2CCC3=Cc4c(cnn4-c4ccc(F)cc4)C[C@]3(C(=O)c3cc(C)ccn3)C2)c1   10.10

---

protocol-description: Oral bioavailability in Sprague-Dawley CD-1 rat plasma at 5 mg/kg administered through gavage measured up to 24 hrs by LC/MS analysis
Assay type: ADME, organism-based
Cut-off 70% on bioavailability, inclusive. At or above means y; below means n.

> print(dat)
                               given.smiles  assigned.category
1  Cn1cc(S(=O)(=O)N2CCC3=Cc4c(cnn4-c4ccc(F)cc4)C[C@]3(C(=O)c3cc(C(F)(F)F)ccn3)C2)cn1                  y
2  Cn1nccc1S(=O)(=O)N1CCC2=Cc3c(cnn3-c3ccc(F)cc3)C[C@]2(C(=O)c2cc(C(F)(F)F)ccn2)C1                  n
3  CCn1nccc1S(=O)(=O)N1CCC2=Cc3c(cnn3-c3ccc(F)cc3)C[C@]2(C(=O)c2cc(C(F)(F)F)ccn2)C1                  n
4  Cn1ncc(S(=O)(=O)N2CC[C@H]3Cc4c(cnn4-c4ccc(F)cc4)C[C@]3(C(=O)c3cc(C(F)(F)F)ccn3)C2)n1                  y

---

tested-on: androgen receptor (Homo sapiens)
Sequence (P10275 whole entry): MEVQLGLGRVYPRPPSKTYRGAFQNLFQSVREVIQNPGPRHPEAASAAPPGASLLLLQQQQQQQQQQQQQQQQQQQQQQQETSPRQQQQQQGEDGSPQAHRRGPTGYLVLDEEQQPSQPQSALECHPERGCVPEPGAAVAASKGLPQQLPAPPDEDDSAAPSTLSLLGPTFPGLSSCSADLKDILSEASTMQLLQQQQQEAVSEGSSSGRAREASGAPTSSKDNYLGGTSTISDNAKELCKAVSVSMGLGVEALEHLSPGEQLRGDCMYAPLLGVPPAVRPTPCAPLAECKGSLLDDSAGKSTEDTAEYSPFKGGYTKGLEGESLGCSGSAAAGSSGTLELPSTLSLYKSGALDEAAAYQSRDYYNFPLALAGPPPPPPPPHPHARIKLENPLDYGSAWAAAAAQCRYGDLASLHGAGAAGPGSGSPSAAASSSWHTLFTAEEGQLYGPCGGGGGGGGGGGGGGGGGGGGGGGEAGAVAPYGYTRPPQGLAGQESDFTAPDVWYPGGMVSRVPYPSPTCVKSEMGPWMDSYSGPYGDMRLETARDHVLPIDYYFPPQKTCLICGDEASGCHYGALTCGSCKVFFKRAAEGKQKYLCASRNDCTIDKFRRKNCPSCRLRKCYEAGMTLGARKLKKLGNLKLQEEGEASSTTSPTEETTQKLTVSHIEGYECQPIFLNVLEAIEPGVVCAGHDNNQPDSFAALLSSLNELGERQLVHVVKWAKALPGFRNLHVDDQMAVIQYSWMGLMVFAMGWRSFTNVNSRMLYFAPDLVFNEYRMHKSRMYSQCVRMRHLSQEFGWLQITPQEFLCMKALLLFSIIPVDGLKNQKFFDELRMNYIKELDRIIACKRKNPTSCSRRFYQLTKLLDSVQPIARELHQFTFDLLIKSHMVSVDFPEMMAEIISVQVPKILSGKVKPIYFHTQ
protocol-description: Inhibition of radioligand binding to androgen receptor (unknown origin) at 1 uM relative to control
observable: inhibition at 1 µM

> print(dat)
                               given.smiles          observable  result
1  Cn1cc(S(=O)(=O)N2CCC3=Cc4c(cnn4-c4ccc(F)cc4)C[C@]3(C(=O)c3cc(C(F)(F)F)ccn3)C2)cn1  inhibition at 1 µM   < 10%

---

protocol-description: AUC in Sprague-Dawley CD-1 rat plasma at 3 mg/kg, po administered as cassette dose via gavage measured up to 24 hrs by LC/MS analysis
Format: ADME, organism-based
Design: time < 24 hr, dose 3 mg/kg, route oral
Quick list: AUC at 24 h per entry.
observable: AUC at 24 h (ng·h/mL)

> print(dat)
                               given.smiles  number
1  Cc1cccc(S(=O)(=O)N2CCC3=Cc4c(cnn4-c4ccc(F)cc4)C[C@]3(C(=O)c3cc(C)ccn3)C2)c1      44
2  O=C(c1nccs1)[C@]12Cc3cnn(-c4ccc(F)cc4)c3C=C1CCN(S(=O)(=O)c1ccc(Cl)c(Cl)c1)C2    1220
3  Cc1cnc(C(=O)[C@]23Cc4cnn(-c5ccc(F)cc5)c4C=C2CCN(S(=O)(=O)c2ccc(F)c(F)c2)C3)s1     135
4  O=C(c1ccccn1)[C@]12Cc3cnn(-c4ccc(F)cc4)c3C=C1CCN(S(=O)(=O)c1cc(F)cc(F)c1)C2     143
5  Cn1nccc1S(=O)(=O)N1CCC2=Cc3c(cnn3-c3ccc(F)cc3)C[C@]2(C(=O)c2cc(C(F)(F)F)ccn2)C1     967
6  Cc1cnc(C(=O)[C@]23Cc4cnn(-c5ccc(F)cc5)c4C=C2CCN(S(=O)(=O)c2ccc(Cl)c(Cl)c2)C3)s1     135
7  O=C(c1nccs1)[C@]12Cc3cnn(-c4ccc(F)cc4)c3C=C1CCN(S(=O)(=O)c1cccc(C(F)(F)F)c1)C2     446

---

protocol-description: Cmax in Sprague-Dawley CD-1 rat plasma at 5 mg/kg, po administered through gavage measured up to 24 hrs by LC/MS analysis
Type: ADME, organism-based
Design: dose 5 mg/kg, route oral
Note to self: Cmax under 500 ng/mL means Criterion met, ties and anything higher get Criterion not met.

> print(dat)
                               given.smiles  assigned.category
1  Cn1nccc1S(=O)(=O)N1CCC2=Cc3c(cnn3-c3ccc(F)cc3)C[C@]2(C(=O)c2cc(C(F)(F)F)ccn2)C1  Criterion not met
2  Cn1ncc(S(=O)(=O)N2CC[C@H]3Cc4c(cnn4-c4ccc(F)cc4)C[C@]3(C(=O)c3cc(C(F)(F)F)ccn3)C2)n1  Criterion not met
3  Cn1cc(S(=O)(=O)N2CCC3=Cc4c(cnn4-c4ccc(F)cc4)C[C@]3(C(=O)c3cc(C(F)(F)F)ccn3)C2)cn1      Criterion met

---

tested-on: Cytochrome P450 2C19 (Homo sapiens)
Sequence (P33261 whole entry): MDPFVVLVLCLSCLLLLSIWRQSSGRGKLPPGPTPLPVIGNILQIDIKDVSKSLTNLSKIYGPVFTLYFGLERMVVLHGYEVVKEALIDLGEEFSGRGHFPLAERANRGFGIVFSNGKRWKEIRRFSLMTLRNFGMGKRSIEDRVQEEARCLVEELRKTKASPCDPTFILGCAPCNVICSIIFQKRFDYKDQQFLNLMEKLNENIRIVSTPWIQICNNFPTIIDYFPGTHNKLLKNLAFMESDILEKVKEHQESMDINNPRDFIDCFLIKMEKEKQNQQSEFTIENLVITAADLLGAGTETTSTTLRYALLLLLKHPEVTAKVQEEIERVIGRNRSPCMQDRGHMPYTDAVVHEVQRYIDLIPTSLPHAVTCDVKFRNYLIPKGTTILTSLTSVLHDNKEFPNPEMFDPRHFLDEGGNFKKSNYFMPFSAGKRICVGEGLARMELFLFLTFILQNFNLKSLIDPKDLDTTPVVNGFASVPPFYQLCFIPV
protocol-description: Inhibition of CYP2C19 (unknown origin)
Type: ADME
pIC50: −log10 of the molar value.
observable: pIC50

> print(dat)
                               given.smiles  number
1  Cn1cc(S(=O)(=O)N2CCC3=Cc4c(cnn4-c4ccc(F)cc4)C[C@]3(C(=O)c3cc(C(F)(F)F)ccn3)C2)cn1    5.10

---

protocol-description: Protein binding in monkey plasma
Assay type: ADME, cell-free, Macaca mulatta
conditions: rhesus monkey, read-out: PPB (converted)
observable: fraction unbound

> print(dat)
                               given.smiles        observable  number
1  Cn1cc(S(=O)(=O)N2CCC3=Cc4c(cnn4-c4ccc(F)cc4)C[C@]3(C(=O)c3cc(C(F)(F)F)ccn3)C2)cn1  fraction unbound   0.011

---

tested-on: Glucocorticoid receptor (Homo sapiens)
protocol-description: Antagonist activity at glucocorticoid receptor in human HepG2 cells assessed as inhibition of dexamethasone-induced tyrosine amino transferase activity preincubated for 30 mins followed by dexamethasone addition measured after 20 hrs
Type: cell-based
pKi: −log10 of the molar value.
Quick list: pKi per entry.
observable: pKi

> print(dat)
                               given.smiles                               tested.on  number
1  Cn1cc(S(=O)(=O)N2CC[C@H]3Cc4c(cnn4-c4ccc(F)cc4)C[C@]3(C(=O)c3cc(C(F)(F)F)ccn3)C2)nn1  Glucocorticoid receptor (Homo sapiens)    7.22
2  Cn1cc(S(=O)(=O)N2CC[C@H]3Cc4c(cnn4-c4ccc(F)cc4)C[C@]3(C(=O)c3cc(C(F)(F)F)ccn3)C2)cn1  Glucocorticoid receptor (Homo sapiens)    7.47
3  Cn1cc(S(=O)(=O)N2CCC3=Cc4c(cnn4-c4ccc(F)cc4)C[C@]3(C(=O)c3cc(C(F)(F)F)ccn3)C2)cn1  Glucocorticoid receptor (Homo sapiens)    8.14
4  O=C(c1ccccn1)[C@]12Cc3cnn(-c4ccc(F)cc4)c3C=C1CCN(S(=O)(=O)c1cc(F)cc(F)c1)C2  Glucocorticoid receptor (Homo sapiens)    8.04
5  Cn1ncc(S(=O)(=O)N2CCC3=Cc4c(cnn4-c4ccc(F)cc4)C[C@]3(C(=O)c3cc(C(F)(F)F)ccn3)C2)n1  Glucocorticoid receptor (Homo sapiens)    8.51
6  O=C(c1nccs1)[C@]12Cc3cnn(-c4ccc(F)cc4)c3C=C1CCN(S(=O)(=O)c1ccc(Cl)c(Cl)c1)C2  Glucocorticoid receptor (Homo sapiens)    7.80
7  Cc1ccnc(C(=O)[C@]23Cc4cnn(-c5ccc(F)cc5)c4C=C2CCN(S(=O)(=O)c2ccc(C(F)(F)F)c(F)c2)C3)c1  Glucocorticoid receptor (Homo sapiens)    8.12

---

protocol-description: Antagonist activity at monkey glucocorticoid receptor in primary hepatocytes assessed as dexamethasone-induced tyrosine amino transferase activity preincubated for 30 mins followed by dexamethasone addition measured after 20 hrs
Format: cell-based, Macaca mulatta
pKi: −log10 of the molar value.
observable: pKi

> print(dat)
                               given.smiles  observable  number
1  Cn1cc(S(=O)(=O)N2CCC3=Cc4c(cnn4-c4ccc(F)cc4)C[C@]3(C(=O)c3cc(C(F)(F)F)ccn3)C2)cn1         pKi    6.68
